B1: Hairpin Ribozyme (parent)
chain: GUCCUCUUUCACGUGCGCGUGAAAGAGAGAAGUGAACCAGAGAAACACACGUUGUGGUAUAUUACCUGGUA

variants of: B1; assay: self-cleavage, relative activity (ratio to wild type); higher = more cleavage; co-transcriptional
measure: self-cleavage

Before answering, review these 2 worked examples.
[[record]]
residues = "GUCCUCUUUCACGUGAGCGUGAAAGAGAGAAGUGAAACAGAGAAACACACGUUGUGGUAUAUUACCUGGUA [C16A C37A]"
reported_value = 0.377

[[record]]
residues = "GUCCUCAUUCACGUGCACGUGAAAGAGAGAAGUGAACCAGAGAAACACACGUUGUGGUAUAUUACCUGGUA [U7A G17A]"
reported_value = 0.865


Shifting focus to the variant that follows.
// self-cleavage lookup, key: GUCCUCUUUCACGUGCGCGUGAAAGAGAGAAGUGAACCAGAGAAGUACACGUUGUGGUAUAUUACCUGGUA [A45G C46U]
0.223
